Source listed as paper PMC9532562.

test: In vivo brain/plasma PK studies; parameters: species or system C57BL/6 mice; details: C57BL/6, mouse, brain, ip, 1 mg/kg
readout_label: concentration at 4 h (ng/mL)
One number for each entry, in ng/mL.

Entry O=C(NO)c1ccc(CN2CCCCc3ccccc32)c(F)c1 [15c] ; concentration at 4 h = 0.82

* * *

experiment: LogD determination, shake flask method; format: physicochemical; conditions: n-octanol/PBS, pH 7.4
readout_label: logD at 1 h
Answers are plain numbers.

Entry O=C(NO)c1ccc(CN2CCCCc3ccccc32)c(F)c1 [15c] ; logD at 1 h = 3.4

* * *

Target: CYP1A2 (Homo sapiens)
Sequence (P05177 1-516): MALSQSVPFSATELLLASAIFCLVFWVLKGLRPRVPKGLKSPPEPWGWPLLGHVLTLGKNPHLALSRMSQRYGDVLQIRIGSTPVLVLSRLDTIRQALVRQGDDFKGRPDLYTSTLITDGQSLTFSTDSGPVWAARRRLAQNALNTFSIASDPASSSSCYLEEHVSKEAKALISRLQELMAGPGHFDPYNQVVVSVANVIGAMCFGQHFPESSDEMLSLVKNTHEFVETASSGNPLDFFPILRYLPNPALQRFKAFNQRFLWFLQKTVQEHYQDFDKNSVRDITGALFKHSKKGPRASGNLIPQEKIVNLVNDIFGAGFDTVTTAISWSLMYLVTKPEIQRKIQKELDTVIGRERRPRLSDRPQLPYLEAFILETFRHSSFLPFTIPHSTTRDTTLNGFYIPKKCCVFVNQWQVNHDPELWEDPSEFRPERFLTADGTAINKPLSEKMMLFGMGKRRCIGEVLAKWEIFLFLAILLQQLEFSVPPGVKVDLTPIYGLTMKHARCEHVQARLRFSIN
Assay: CYP inhibition assay, pooled human liver microsomes
Assay type: in vitro ADME
Details: probe phenacetin
readout_label: inhibition at 10 min, 10 μmol/L

Entry O=C(NO)c1ccc(CN2CCCCc3ccccc32)c(F)c1 [15c] ; inhibition at 10 min, 10 μmol/L = 36.8%

* * *

Biological target: HDAC10 (Homo sapiens, UniProt Q969S8)
Sequence (Q969S8 1-669): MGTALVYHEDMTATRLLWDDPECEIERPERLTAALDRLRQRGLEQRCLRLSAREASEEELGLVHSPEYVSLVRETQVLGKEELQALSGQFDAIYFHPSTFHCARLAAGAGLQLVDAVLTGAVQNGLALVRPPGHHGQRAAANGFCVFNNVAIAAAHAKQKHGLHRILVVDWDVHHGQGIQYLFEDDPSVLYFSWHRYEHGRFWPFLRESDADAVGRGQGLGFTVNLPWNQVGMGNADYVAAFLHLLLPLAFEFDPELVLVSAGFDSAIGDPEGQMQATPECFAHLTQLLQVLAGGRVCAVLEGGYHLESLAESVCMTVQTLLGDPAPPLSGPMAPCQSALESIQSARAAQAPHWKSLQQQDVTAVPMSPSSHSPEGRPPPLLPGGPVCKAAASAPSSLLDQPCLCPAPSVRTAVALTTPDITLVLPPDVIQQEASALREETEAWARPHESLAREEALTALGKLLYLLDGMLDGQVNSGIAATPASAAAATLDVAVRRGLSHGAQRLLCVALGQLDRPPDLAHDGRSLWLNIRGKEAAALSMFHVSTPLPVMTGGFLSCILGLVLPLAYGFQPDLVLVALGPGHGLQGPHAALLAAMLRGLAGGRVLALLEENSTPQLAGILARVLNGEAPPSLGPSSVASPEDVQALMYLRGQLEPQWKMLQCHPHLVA
pIC50: −log10 of the molar value.
I'd be grateful if you could share measured pIC50 for these entries.

Observe how each entry below is paired with its result.
| compound | result |
| --- | --- |
| COc1cc(CN2CCCCc3ccccc32)ccc1C(=O)NO [15b] | < 5.00 |
| O=C(NO)c1ccc(CN2CCCCc3ccccc32)cc1F [15d] | < 5.00 |
| COc1cc(C(=O)NO)ccc1CN1CCCCc2ccccc21 [15a] | < 5.00 |

Sample O=C(NO)c1ccc(CN2CCCCc3ccccc32)c(F)c1 [15c] , system: HDAC10 (Homo sapiens, UniProt Q969S8). Its pIC50 is 5.05

* * *

target: HDAC11 (Homo sapiens, UniProt Q96DB2); experiment: HDAC enzyme inhibition assay; assay type: biochemical
Sequence (Q96DB2 whole entry): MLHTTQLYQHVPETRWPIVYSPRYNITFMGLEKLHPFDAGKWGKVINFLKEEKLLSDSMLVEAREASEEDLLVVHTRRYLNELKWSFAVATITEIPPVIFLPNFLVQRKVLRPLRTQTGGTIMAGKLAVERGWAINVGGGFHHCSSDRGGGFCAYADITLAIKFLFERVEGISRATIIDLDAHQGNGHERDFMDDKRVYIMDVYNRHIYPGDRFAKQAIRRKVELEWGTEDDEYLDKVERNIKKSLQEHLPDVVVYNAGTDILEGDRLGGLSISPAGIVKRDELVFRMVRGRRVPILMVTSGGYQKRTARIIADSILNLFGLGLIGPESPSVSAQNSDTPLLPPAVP
readout_label: IC50 (µM)
One number for each entry, in µM.

Observe how each entry below is paired with its result.
| compound | experimental_target | IC50 [µM] |
| --- | --- | --- |
| O=C(NO)c1ccc(CN2CCCCc3ccccc32)cc1F [15d] | HDAC11 (Homo sapiens, UniProt Q96DB2) | 5.42 |
| COc1cc(CN2CCCCc3ccccc32)ccc1C(=O)NO [15b] | HDAC11 (Homo sapiens, UniProt Q96DB2) | 3.52 |
| COc1cc(C(=O)NO)ccc1CN1CCCCc2ccccc21 [15a] | HDAC11 (Homo sapiens, UniProt Q96DB2) | 9.52 |

Entry O=C(NO)c1ccc(CN2CCCCc3ccccc32)c(F)c1 [15c] ; IC50 = 4.38

* * *

experiment: Hepatocyte stability; assay type: in vitro ADME; conditions: human, hepatocytes
readout_label: half-life at 5 μM (min)
One number for each entry, in min.

Entry O=C(NO)c1ccc(CN2CCCCc3ccccc32)c(F)c1 [15c] ; half-life at 5 μM = 32.4

* * *

biological target: HDAC8 (Homo sapiens)
Sequence (Q9BY41 whole entry): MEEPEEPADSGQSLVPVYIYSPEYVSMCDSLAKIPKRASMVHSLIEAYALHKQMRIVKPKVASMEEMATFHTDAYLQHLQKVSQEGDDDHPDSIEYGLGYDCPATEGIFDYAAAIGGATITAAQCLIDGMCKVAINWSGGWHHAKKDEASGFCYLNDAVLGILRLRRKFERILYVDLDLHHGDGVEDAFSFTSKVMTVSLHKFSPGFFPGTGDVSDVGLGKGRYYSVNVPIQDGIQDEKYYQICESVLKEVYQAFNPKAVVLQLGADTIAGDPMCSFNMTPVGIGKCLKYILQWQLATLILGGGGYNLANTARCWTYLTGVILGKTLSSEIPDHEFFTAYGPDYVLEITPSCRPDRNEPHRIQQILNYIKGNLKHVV
I'd be grateful if you could share measured IC50 for these entries.
Answers are plain numbers, in nM.

Observe how each entry below is paired with its result.
| compound | u | quantitative_readout |
| --- | --- | --- |
| O=C(NO)c1ccc(CN2CCCCc3ccccc32)c(F)c1 [15c] | nM | 1680 |
| O=C(NO)c1ccc(CN2CCCCc3ccccc32)cc1F [15d] | nM | 9110 |

Next up:
Entry COc1cc(CN2CCCCc3ccccc32)ccc1C(=O)NO [15b] ; IC50 = 2060

* * *

molecular target: UniProtKB Q9UBN7
Sequence (Q9UBN7 whole entry): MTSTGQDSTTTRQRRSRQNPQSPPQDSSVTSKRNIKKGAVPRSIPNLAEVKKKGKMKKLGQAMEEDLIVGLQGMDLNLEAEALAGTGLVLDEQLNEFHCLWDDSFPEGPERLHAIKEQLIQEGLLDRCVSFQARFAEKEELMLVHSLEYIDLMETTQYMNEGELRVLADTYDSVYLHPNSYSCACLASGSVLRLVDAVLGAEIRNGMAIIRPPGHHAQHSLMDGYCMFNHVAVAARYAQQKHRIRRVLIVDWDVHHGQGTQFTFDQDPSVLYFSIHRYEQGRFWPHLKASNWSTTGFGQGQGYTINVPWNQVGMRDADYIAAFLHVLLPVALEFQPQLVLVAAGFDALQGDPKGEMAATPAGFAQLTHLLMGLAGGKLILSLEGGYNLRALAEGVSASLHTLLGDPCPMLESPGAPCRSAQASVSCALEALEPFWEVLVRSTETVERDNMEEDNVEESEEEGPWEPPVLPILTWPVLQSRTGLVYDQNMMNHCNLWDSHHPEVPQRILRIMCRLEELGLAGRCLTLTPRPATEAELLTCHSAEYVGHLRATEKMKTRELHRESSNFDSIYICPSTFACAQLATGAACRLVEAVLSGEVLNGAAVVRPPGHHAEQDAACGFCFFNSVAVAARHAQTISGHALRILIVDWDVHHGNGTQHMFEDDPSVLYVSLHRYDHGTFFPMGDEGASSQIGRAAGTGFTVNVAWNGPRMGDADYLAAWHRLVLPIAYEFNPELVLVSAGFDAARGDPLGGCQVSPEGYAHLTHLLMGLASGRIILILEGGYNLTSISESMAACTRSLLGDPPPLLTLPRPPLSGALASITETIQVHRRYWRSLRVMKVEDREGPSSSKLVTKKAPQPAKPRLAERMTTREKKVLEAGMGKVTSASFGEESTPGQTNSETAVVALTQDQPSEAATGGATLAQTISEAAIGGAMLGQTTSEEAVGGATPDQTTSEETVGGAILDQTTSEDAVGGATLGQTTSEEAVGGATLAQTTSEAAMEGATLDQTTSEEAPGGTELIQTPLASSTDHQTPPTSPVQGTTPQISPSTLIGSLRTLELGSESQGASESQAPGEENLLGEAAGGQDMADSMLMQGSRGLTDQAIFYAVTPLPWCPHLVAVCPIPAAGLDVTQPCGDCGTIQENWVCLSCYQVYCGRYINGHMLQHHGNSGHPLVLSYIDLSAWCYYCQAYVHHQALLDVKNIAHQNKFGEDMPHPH
I'd be grateful if you could share measured pIC50 for these entries.
Answers are plain numbers, as −log10 of the molar value.

| compound | quantitative_readout |
| --- | --- |
| COc1cc(C(=O)NO)ccc1CN1CCCCc2ccccc21 [15a] | 5.19 |
| COc1cc(CN2CCCCc3ccccc32)ccc1C(=O)NO [15b] | 5.38 |
| O=C(NO)c1ccc(CN2CCCCc3ccccc32)cc1F [15d] | 7.60 |

Next up:
Sample O=C(NO)c1ccc(CN2CCCCc3ccccc32)c(F)c1 [15c] , system: UniProtKB Q9UBN7. Its pIC50 is 8.28

* * *

test: In vivo brain/plasma PK studies; parameters: species or system C57BL/6 mice; conditions: C57BL/6, mouse, plasma, ip, 1 mg/kg
readout_label: concentration at 0.5 h
Form entry: enter the amount, then its unit.

Entry O=C(NO)c1ccc(CN2CCCCc3ccccc32)c(F)c1 [15c] ; concentration at 0.5 h = 1.32 ng/mL

* * *

I'd be grateful if you could share measured pIC50 for these entries.
target: HDAC4 (Homo sapiens)
Sequence (P56524 whole entry): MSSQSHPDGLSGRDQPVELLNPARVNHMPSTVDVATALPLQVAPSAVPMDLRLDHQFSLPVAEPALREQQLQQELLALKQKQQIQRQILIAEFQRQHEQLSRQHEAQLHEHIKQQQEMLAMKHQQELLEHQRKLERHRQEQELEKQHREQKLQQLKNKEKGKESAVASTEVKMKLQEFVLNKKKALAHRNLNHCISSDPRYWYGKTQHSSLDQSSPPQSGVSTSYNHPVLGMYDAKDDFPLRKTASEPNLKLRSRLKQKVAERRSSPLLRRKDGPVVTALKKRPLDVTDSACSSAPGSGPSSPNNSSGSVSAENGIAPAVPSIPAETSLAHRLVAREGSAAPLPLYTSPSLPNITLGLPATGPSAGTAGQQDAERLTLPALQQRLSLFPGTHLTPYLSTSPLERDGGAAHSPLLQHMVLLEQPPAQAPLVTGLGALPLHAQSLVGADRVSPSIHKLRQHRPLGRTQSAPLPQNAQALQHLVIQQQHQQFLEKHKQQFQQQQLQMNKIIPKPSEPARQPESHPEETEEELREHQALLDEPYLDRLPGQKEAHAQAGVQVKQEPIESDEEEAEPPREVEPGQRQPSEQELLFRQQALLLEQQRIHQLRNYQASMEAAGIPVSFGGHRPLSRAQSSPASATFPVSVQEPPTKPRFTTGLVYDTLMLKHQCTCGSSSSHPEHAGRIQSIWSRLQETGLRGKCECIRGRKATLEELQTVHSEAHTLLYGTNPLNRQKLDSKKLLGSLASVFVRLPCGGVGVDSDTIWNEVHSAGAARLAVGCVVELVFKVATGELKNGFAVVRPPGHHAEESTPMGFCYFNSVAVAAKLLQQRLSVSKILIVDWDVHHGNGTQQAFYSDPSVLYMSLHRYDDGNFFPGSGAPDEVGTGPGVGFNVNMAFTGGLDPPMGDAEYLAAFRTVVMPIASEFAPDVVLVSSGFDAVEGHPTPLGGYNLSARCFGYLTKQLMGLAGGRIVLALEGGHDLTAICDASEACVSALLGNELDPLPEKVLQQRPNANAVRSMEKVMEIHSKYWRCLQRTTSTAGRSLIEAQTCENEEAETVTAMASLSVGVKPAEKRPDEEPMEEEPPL
Numbers only, as −log10 of the molar value.

| compound | pIC50 |
| --- | --- |
| O=C(NO)c1ccc(CN2CCCCc3ccccc32)c(F)c1 [15c] | 5.67 |

Sample O=C(NO)c1ccc(CN2CCCCc3ccccc32)cc1F [15d] , system: HDAC4 (Homo sapiens). Its pIC50 is 5.45

* * *

test: In vivo brain/plasma PK studies; set-up: species or system C57BL/6 mice; conditions: C57BL/6, mouse, brain and plasma, ip, 1 mg/kg, Brain/plasma ratio, C57BL/6 mice, 4 h
readout_label: Kp at 4 h
Give bare numbers.

Entry O=C(NO)c1ccc(CN2CCCCc3ccccc32)c(F)c1 [15c] ; Kp at 4 h = 2.3

* * *

assay: In vivo brain/plasma PK studies; set-up: species or system C57BL/6 mice; details: C57BL/6, mouse, brain, ip, 1 mg/kg
readout_label: concentration at 0.5 h (ng/mL)
Answers are plain numbers, in ng/mL.

Entry O=C(NO)c1ccc(CN2CCCCc3ccccc32)c(F)c1 [15c] ; concentration at 0.5 h = 48.5

* * *

assay: In vivo brain/plasma PK studies; parameters: species or system C57BL/6 mice; conditions: C57BL/6, mouse, brain, ip, 1 mg/kg
readout_label: concentration at 1 h (µg/mL)
Numbers only, in µg/mL.

Entry O=C(NO)c1ccc(CN2CCCCc3ccccc32)c(F)c1 [15c] ; concentration at 1 h = 0.0115

* * *

test: In vivo brain/plasma PK studies; parameters: species or system C57BL/6 mice; details: C57BL/6, mouse, plasma, ip, 1 mg/kg
readout_label: concentration at 4 h
Form entry: enter the amount, then its unit.

Entry O=C(NO)c1ccc(CN2CCCCc3ccccc32)c(F)c1 [15c] ; concentration at 4 h = 0.35 ng/mL

* * *

Molecular target: HDAC7 (Homo sapiens)
Sequence (Q8WUI4 1-952): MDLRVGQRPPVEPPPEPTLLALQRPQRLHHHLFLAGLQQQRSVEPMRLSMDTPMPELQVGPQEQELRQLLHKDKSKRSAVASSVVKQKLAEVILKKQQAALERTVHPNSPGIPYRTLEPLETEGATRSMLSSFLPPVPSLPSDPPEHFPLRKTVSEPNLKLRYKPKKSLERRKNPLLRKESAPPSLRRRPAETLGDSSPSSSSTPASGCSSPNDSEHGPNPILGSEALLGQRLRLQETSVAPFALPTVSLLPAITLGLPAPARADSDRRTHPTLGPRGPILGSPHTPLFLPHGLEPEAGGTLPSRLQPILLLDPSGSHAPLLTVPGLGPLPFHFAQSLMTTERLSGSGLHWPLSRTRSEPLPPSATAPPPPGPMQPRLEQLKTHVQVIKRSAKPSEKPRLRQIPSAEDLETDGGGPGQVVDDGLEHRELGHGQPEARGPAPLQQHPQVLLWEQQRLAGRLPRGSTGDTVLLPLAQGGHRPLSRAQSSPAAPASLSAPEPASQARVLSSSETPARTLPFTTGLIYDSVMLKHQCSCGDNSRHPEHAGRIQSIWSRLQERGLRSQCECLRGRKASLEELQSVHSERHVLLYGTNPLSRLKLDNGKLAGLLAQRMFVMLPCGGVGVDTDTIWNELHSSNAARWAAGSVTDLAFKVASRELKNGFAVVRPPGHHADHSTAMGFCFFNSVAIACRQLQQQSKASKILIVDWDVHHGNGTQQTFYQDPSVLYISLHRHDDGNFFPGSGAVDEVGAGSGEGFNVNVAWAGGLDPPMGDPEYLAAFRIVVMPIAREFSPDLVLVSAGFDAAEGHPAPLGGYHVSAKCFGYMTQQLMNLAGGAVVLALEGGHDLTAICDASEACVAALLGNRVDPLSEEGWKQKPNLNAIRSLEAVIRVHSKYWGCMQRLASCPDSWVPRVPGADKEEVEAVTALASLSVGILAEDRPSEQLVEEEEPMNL
readout_label: IC50 (µM)
Give bare numbers, in µM.

| molecule | experimental_target | IC50 (µM) |
| --- | --- | --- |
| O=C(NO)c1ccc(CN2CCCCc3ccccc32)cc1F [15d] | HDAC7 (Homo sapiens) | 3.02 |

Entry O=C(NO)c1ccc(CN2CCCCc3ccccc32)c(F)c1 [15c] ; IC50 = 0.609
